measurement_notes: Scrub resistance of pigmented and complete PUDs (ISO 11998)
Type: physicochemical
run_parameters: 200 wet-scrub cycles
Decide by Wt. Loss: equal to or exceeding 4 g/m^2 means t, less means f.

# example entries with known answers
molecule="CCCCN1CCCC1=O [NBP, N-butyl pyrrolidone, reference compound]" classification=t
molecule="CN1CCCC1=O [NMP, N-methyl pyrrolidone, reference compound]" classification=f
molecule=CCN1CCCCCC1=O classification=f

Is the recorded value of Wt. Loss equal to or greater than 4 g/m^2 for this molecule? COC(=O)CCCCC(=O)N(C)C [Ester amide]
t

Is the recorded value of Wt. Loss equal to or greater than 4 g/m^2 for this molecule? CN1CCCCCC1=O
f

Data credit: patent US12024584B2
